These data points were gathered from paper PMC7083938.

# Target desc: T1, Robo3 FN1 mouse (Mus musculus (Mouse), UniProt Q9Z2I4)
# T1 chain: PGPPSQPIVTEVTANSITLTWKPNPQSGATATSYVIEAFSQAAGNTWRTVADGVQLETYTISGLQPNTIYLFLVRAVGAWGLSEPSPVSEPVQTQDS
# Procedure details: SPR equilibrium
Experimental endpoint: pKd
Scale: pKd equals -log10([C]), with [C] in mol/L.

According to the records, this binder NELL2 mouse (protein) DIDECAEGRHYCRENTMCVNTPGSFMCICKTGYIRIDDYSCTEHDECLTNQHNCDENALCFNTVGGHNCVCKPGYTGNGTTCK displays pKd of 6.15
